Target: KRas-G12D (Homo sapiens, UniProt P01116, G12D)
Construct: insert the HiBiT tag onto the N-terminus of one or more of the endogenous KRas alleles; host or cells: AsPC-1 HiBiT-KRasG12D knock-in clone (one tagged allele, two untagged KRasG12D alleles)
Sequence (P01116 1-188 isoform P01116-2 G12D): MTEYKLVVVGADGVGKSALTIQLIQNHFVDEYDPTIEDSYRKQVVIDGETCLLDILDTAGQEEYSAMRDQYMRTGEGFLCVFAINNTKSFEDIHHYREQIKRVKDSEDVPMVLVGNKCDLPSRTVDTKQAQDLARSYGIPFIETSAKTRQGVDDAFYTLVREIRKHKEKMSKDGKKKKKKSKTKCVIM
Experiment: HiBiT Degradation Assay (G12D), AsPC-1 HiBiT-KRasG12D cells, 24 hr
Format: cell-based
Conditions: AsPC-1 cells
measurement.name: DC50

The cases that follow already have their DC50 on record.
C#Cc1c(F)ccc2cc(O)cc(-c3ncc4c(N5CC6CCC(C5)N6)nc(OCCN5CCC6(CC5)CCN(CC5CCN(c7ccc8c(c7)n(C(C)C)c(=O)n8C7CCC(=O)NC7=O)CC5)CC6)nc4c3F)c12 (centres unmarked) : < 5.1 µM
CCc1cccc2cc(O)cc(-c3ncc4c(N5CC6CCC(C5)N6C)nc(OC[C@]56CCCN5[C@@H](COC(=O)N5CCN(c7ccc8c(c7)CN(C7CCC(=O)NC7=O)C8=O)CC5)CC6)nc4c3F)c12 (some centres unmarked) : > 1 µM
C#Cc1c(F)ccc2cc(O)cc(-c3ncc4c(N5CC6CCC(C5)N6)nc(OCCN5CCC6(CC5)CCN(CC5CCN(c7ccc8c(c7Cl)CN(C7CCC(=O)NC7=O)C8=O)CC5)CC6)nc4c3F)c12 (centres unmarked) : < 5.1 µM
C#Cc1c(F)ccc2cc(O)cc(-c3ncc4c(N5CC6CCC(C5)N6)nc(OCC5(CN6CCC(CN7CCN(c8ccc9c(c8Cl)CN(C8CCC(=O)NC8=O)C9=O)CC7)CC6)CC5)nc4c3F)c12 (centres unmarked) : < 5.1 µM

Could you now consider this next molecule?
So for C#Cc1c(F)ccc2cc(O)cc(-c3ncc4c(N5CC6CCC(C5)N6)nc(OCCN5CCC(CC6(F)CCN(CC7CCN(c8cccc9c8CN(C8CCC(=O)NC8=O)C9=O)CC7)CC6)CC5)nc4c3F)c12 (centres unmarked) , the logged DC50 turned out to be < 5.1 µM
